Listed here: items and their measured self-cleavage kobs at 40 uM GlcN6P.
B1: glmS ribozyme (parent)
chain: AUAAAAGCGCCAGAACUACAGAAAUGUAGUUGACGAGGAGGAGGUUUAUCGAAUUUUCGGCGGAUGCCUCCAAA

Variants of: B1
Assay: self-cleavage kobs at 40 uM GlcN6P; higher = faster cleavage; RNA array
Settings: with glucosamine-6-phosphate
Fewer inactive variants are shown than the library holds.

{"mutation descriptor": "C16U G66A", "self-cleavage kobs at 40 uM GlcN6P": "0.000448 s⁻¹"}
{"mutation descriptor": "C16G G51C", "self-cleavage kobs at 40 uM GlcN6P": "< 1e-05 s⁻¹"}
{"mutation descriptor": "A39C G66C", "self-cleavage kobs at 40 uM GlcN6P": "3.24e-05 s⁻¹"}
{"mutation descriptor": "G59C G60U", "self-cleavage kobs at 40 uM GlcN6P": "< 1e-05 s⁻¹"}
{"mutation descriptor": "C11U A36G G38C U69C", "self-cleavage kobs at 40 uM GlcN6P": "< 1e-05 s⁻¹"}

Incoming: Which self-cleavage kobs at 40 uM GlcN6P is listed for G29A U30G ?
Outgoing: 0.000159 s⁻¹

Incoming: Any idea what its self-cleavage kobs at 40 uM GlcN6P is? The variant is C50A A52C
Outgoing: < 1e-05 s⁻¹

Incoming: Reported self-cleavage kobs at 40 uM GlcN6P for A15U A33U C61G : what is it?
Outgoing: < 1e-05 s⁻¹
